# measuredOn: d-enCas12a-Ultra (Acidaminococcus sp., UniProt U2UMQ6 1-1307, E174R;S542R;K548R;M537R;F870L;D908A;E993A;D1235A)
# protocolDetails: Spec-seq (native PAGE EMSA with sequencing of bound and unbound); 25 mM Tris-HCl pH 7.4, 150 mM KCl, 5 mM MgCl2, 10% glycerol, 1 mM DTT, 40 ng/uL salmon sperm DNA; 400 nM Cas12a, 480 nM crRNA, 50 nM library, 37 C 1 h; native PAGE at room temperature; high values mean tight binding;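 note: relative affinity from the bound to unbound sequence frequency ratio in Spec-seq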
# details: protein: recombinant
Could you please mark label 1 for values of binding signal below -3 lnKA and label 0 for values at or above it?

• AATT (dsDNA) DNA 1: GCTATCTAGTGCTCAGTACGCACTGAATTAGGAAACTTCTGGCAGGACCAGGTCATGAGATCGGAAGAGCACACGTCTGAACTCCAGTCA DNA 2: TGACTGGAGTTCAGACGTGTGCTCTTCCGATCTCATGACCTGGTCCTGCCAGAAGTTTCCTAATTCAGTGCGTACTGAGCACTAGATAGC RNA: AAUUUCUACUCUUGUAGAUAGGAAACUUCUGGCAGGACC = label 0
• ATCC (dsDNA) DNA 1: GCTATCTAGTGCTCAGTACGCACTGATCCAGGAAACTTCTGGCAGGACCAGGTCATGAGATCGGAAGAGCACACGTCTGAACTCCAGTCA DNA 2: TGACTGGAGTTCAGACGTGTGCTCTTCCGATCTCATGACCTGGTCCTGCCAGAAGTTTCCTGGATCAGTGCGTACTGAGCACTAGATAGC RNA: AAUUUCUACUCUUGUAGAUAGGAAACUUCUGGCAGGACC = label 0
• GCCT (dsDNA) DNA 1: GCTATCTAGTGCTCAGTACGCACTGGCCTAGGAAACTTCTGGCAGGACCAGGTCATGAGATCGGAAGAGCACACGTCTGAACTCCAGTCA DNA 2: TGACTGGAGTTCAGACGTGTGCTCTTCCGATCTCATGACCTGGTCCTGCCAGAAGTTTCCTAGGCCAGTGCGTACTGAGCACTAGATAGC RNA: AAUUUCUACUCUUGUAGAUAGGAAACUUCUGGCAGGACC = label 0
• GAGG (dsDNA) DNA 1: GCTATCTAGTGCTCAGTACGCACTGGAGGAGGAAACTTCTGGCAGGACCAGGTCATGAGATCGGAAGAGCACACGTCTGAACTCCAGTCA DNA 2: TGACTGGAGTTCAGACGTGTGCTCTTCCGATCTCATGACCTGGTCCTGCCAGAAGTTTCCTCCTCCAGTGCGTACTGAGCACTAGATAGC RNA: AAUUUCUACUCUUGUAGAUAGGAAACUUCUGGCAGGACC = label 1
• CCTC (dsDNA) DNA 1: GCTATCTAGTGCTCAGTACGCACTGCCTCAGGAAACTTCTGGCAGGACCAGGTCATGAGATCGGAAGAGCACACGTCTGAACTCCAGTCA DNA 2: TGACTGGAGTTCAGACGTGTGCTCTTCCGATCTCATGACCTGGTCCTGCCAGAAGTTTCCTGAGGCAGTGCGTACTGAGCACTAGATAGC RNA: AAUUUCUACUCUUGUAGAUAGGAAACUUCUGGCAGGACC = label 0
